The values you see were collected from patent US9328112B2.

- ASSAYED SYSTEM: CDK9/Cyclin T1 (Homo sapiens (Human), UniProt P50750)
- Sequence (P50750 whole entry): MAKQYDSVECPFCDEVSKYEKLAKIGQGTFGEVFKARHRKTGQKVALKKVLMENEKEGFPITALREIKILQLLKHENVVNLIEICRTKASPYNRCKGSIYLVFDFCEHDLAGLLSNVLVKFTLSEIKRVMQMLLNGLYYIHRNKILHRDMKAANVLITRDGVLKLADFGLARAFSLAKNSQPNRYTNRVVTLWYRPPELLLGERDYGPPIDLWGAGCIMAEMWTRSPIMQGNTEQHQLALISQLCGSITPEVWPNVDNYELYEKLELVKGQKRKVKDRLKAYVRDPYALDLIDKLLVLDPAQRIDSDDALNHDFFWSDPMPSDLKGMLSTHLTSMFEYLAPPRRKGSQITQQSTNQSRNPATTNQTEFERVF
- Sequence (O60563 whole entry partner): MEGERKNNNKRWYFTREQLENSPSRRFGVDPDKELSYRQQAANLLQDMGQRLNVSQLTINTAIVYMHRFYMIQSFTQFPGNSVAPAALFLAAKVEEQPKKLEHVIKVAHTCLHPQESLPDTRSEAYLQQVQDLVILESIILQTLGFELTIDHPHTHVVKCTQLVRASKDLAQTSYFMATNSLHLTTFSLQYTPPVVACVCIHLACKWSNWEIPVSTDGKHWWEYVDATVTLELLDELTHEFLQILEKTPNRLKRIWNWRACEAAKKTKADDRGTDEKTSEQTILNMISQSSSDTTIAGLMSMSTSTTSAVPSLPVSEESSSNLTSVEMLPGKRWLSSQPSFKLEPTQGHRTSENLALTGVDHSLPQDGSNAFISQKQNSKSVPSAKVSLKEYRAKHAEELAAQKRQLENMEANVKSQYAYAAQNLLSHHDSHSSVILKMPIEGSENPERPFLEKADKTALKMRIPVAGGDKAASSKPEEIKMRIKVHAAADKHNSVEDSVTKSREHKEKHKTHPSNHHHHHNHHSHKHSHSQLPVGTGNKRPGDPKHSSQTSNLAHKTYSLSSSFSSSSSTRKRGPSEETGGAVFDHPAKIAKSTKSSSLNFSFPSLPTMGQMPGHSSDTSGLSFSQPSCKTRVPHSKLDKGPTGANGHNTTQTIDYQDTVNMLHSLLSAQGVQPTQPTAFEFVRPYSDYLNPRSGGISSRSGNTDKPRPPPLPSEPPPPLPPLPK
- ASSAY DETAILS: CDK9 enzyme assay (LANCE ULight TR-FRET kinase assay)
- SETUP CONDITIONS: 1000 μM ATP, 100 nM ULight MBP, kinase reaction 1 hour
Reported pIC50 by item:
pIC50 (log units): -log10 of the concentration in mol/L.

CN1Cc2c(C3=CCN([C@H]4CC[C@@H](CC(=O)O)CC4)CC3)[nH]c3nccc(c23)-c2ccccc21    6.96
CC(C(=O)O)=C1CCC(N2CC=C(c3[nH]c4nccc5c4c3CN(C)c3ccc(F)cc3-5)CC2)CC1 (stereo not drawn)    7.08
CN(CCO)C(=O)CN1C2C=C(c3[nH]c4nccc5c4c3CN(C)c3ccc(F)cc3-5)CC1CCC2 (stereo not drawn)    7.07

Ask: Query: pIC50; subject: COCCS(=O)(=O)N1CC2C=C(c3[nH]c4nccc5c4c3CN(C)c3ccc(F)cc3-5)CC2C1 (stereo not drawn)
Result: 7.10

Ask: Entry CN1Cc2c(C3=CCNCC3)[nH]c3nccc(c23)-c2ccccc21 : reported pIC50 = ?
Result: 7.02

Ask: Please look up its pIC50: CN(C)C(=O)CN1CC=C(c2[nH]c3nccc4c3c2CCN(C)c2ccc(F)cc2-4)CC1
Result: 7.17

Ask: Look at this compound and give its reported pIC50. CN1Cc2c(C3=CCN([C@H]4CC[C@H](C(=O)O)CC4)CC3)[nH]c3ncc(F)c(c23)-c2cc(F)ccc21
Result: 7.12

Ask: Query: pIC50; subject: CN(C)C(=O)CN1CC=C(c2[nH]c3nccc4c3c2CN(C)c2ccccc2-4)CC1
Result: 6.94

Ask: So what's the measured pIC50 for this one? CN1Cc2c(C3=CCN([C@H]4CC[C@H](CC(=O)O)CC4)CC3)[nH]c3nccc(c23)-c2ccccc21
Result: 7.05
